Test system: 186277-243-T-J2-PDC complex spheroid viability
Assay: Anticancer human tumor 186277-243-T-J2-PDC patient-derived colon adenocarcinoma cell line growth inhibition [GQUAD]; active = viability on the fitted dose curve at most 10% of control; inactive = the rest
Conditions: second compound 0.316 µM; first compound 10 µM
Thanks in advance; please answer with one of these: 1.0 = active, 0.0 = inactive

Illustrative cases are given below, each with its answer.
COc1ncnc(C2CC2)c1-c1ncc2cnn(Cc3ccc(-c4nc(C(F)(F)F)cn4C(C)C)cc3)c2n1 + Cc1cnc(CNC(=O)c2c(=O)c3ccc(N4CCCN(C)CC4)nc3n3c2sc2ccccc23)cn1
0.0
CC1COCCN1c1cc(C2(O)CC3CCC(C2)O3)c2cnn(-c3ccn[nH]3)c2n1 (stereo not given) + CN(C)c1ccc(Nc2c3ccc(NC(=O)CCN4CCCC4)cc3nc3cc(NC(=O)CCN4CCCC4)ccc23)cc1
1.0
CC1COCCN1c1cc(C2(S(C)(=N)=O)CC2)nc(-c2ccnc3[nH]ccc23)n1 (stereo not given) + Cc1[nH]c2ccc(F)cc2c1-c1nc2c3cccnc3c3ncccc3c2[nH]1
1.0
C#Cc1c(F)ccc2cc(O)cc(-c3ncc4c(N5CC6CCC(C5)N6)nc(OCC56CCCN5CC(F)C6)nc4c3F)c12 (stereo not given) + CN(C)c1ccc(Nc2c3ccc(NC(=O)CCN4CCCC4)cc3nc3cc(NC(=O)CCN4CCCC4)ccc23)cc1
1.0

--- query ---
For COc1ccc([C@@H](O)c2cc(-c3ncnc4cc(N5CCOCC5)ccc34)c(F)cc2Cl)nn1 + Cc1cnc(CNC(=O)c2c(=O)c3ccc(N4CCCN(C)CC4)nc3n3c2sc2ccccc23)cn1 , what call appears in the results of this test?
1.0

###

Test system: 186277-243-T-J2-PDC complex spheroid viability
Test: Anticancer human tumor 186277-243-T-J2-PDC cell line growth inhibition [GQUAD];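 note: spheroids exposed to drugs for 7 days; 100% = DMSO vehicle control viability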
Conditions: second compound 10 µM; first compound 1 µM; stronger effect = lower value
Some molecules, each annotated with its measured viability, T/C.
Number only, in %; omit the unit.

O=C(NO)c1cnc(N2CCN(S(=O)(=O)c3ccc4ccccc4c3)CC2)nc1 + Cc1cnc(CNC(=O)c2c(=O)c3ccc(N4CCCN(C)CC4)nc3n3c2sc2ccccc23)cn1
0.14
O=C(c1cc(Cc2n[nH]c(=O)c3ccccc23)ccc1F)N1CCN(C(=O)C2CC2)CC1 + Cc1cnc(CNC(=O)c2c(=O)c3ccc(N4CCCN(C)CC4)nc3n3c2sc2ccccc23)cn1
43.8
C=CCn1c(=O)c2cnc(Nc3ccc(N4CCN(C)CC4)cc3)nc2n1-c1cccc(C(C)(C)O)n1 + CN(C)c1ccc(Nc2c3ccc(NC(=O)CCN4CCCC4)cc3nc3cc(NC(=O)CCN4CCCC4)ccc23)cc1
10.1
CC(C)n1c(=O)n(C)c2cnc3cc(F)c(-c4ccc(OCCCN5CCCCC5)nc4)cc3c21 + Cc1cnc(CNC(=O)c2c(=O)c3ccc(N4CCCN(C)CC4)nc3n3c2sc2ccccc23)cn1
39.7

Now consider the entry below.
Report viability, T/C for COc1cc(C2c3cc4c(cc3C(OC3OC5COC(C)OC5C(O)C3O)C3COC(=O)C23)OCO4)cc(OC)c1O (stereo not given) + Cc1cnc(CNC(=O)c2c(=O)c3ccc(N4CCCN(C)CC4)nc3n3c2sc2ccccc23)cn1 please.
47

###

Tested on: 186277-243-T-J2-PDC complex spheroid viability
Experiment: Anticancer human tumor 186277-243-T-J2-PDC cell line growth inhibition [GQUAD]; active means viability on the fitted dose curve at most 10% of control; inactive means the rest;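 note: spheroids exposed to drugs for 7 days; 100% = DMSO vehicle control viability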
Conditions: second compound 0.0316 µM; first compound 0.316 µM
Thanks in advance; please answer with one of these: 1 = active, 0 = inactive

Illustrative cases are given below, each with its answer.
O=C(NO)c1cnc(N2CCN(S(=O)(=O)c3ccc4ccccc4c3)CC2)nc1 + Cc1[nH]c2ccc(F)cc2c1-c1nc2c3cccnc3c3ncccc3c2[nH]1
1
CC[C@@]1(O)C(=O)OCc2c1cc1n(c2=O)Cc2cc3c(CN(C)C)c(O)ccc3nc2-1 + Cc1cnc(CNC(=O)c2c(=O)c3ccc(N4CCCN(C)CC4)nc3n3c2sc2ccccc23)cn1
0
COc1ccc([C@@H](O)c2cc(-c3ncnc4cc(N5CCOCC5)ccc34)c(F)cc2Cl)nn1 + Cc1cnc(CNC(=O)c2c(=O)c3ccc(N4CCCN(C)CC4)nc3n3c2sc2ccccc23)cn1
0

For CC(=O)O[C@H]1C(=O)[C@@]2(C)[C@H]([C@H](OC(=O)c3ccccc3)[C@]3(O)C[C@H](OC(=O)[C@H](O)[C@@H](NC(=O)c4ccccc4)c4ccccc4)C(C)=C1C3(C)C)[C@]1(OC(C)=O)CO[C@@H]1C[C@@H]2O + Cc1[nH]c2ccc(F)cc2c1-c1nc2c3cccnc3c3ncccc3c2[nH]1 , what call appears in the results of this test?
1

And CC1COCCN1c1cc(-c2ccnn2C)c2ccnc(-c3ccn[nH]3)c2n1 (stereo not given) + CN(C)c1ccc(Nc2c3ccc(NC(=O)CCN4CCCC4)cc3nc3cc(NC(=O)CCN4CCCC4)ccc23)cc1 ?
1

And Cc1cccc(N(C)C(=O)C2C(O)CCN2c2nc(C)cc(C(F)(F)F)c2C#N)c1 (stereo not given) + Cc1cnc(CNC(=O)c2c(=O)c3ccc(N4CCCN(C)CC4)nc3n3c2sc2ccccc23)cn1 ?
0

And C=CCn1c(=O)c2cnc(Nc3ccc(N4CCN(C)CC4)cc3)nc2n1-c1cccc(C(C)(C)O)n1 + Cc1cnc(CNC(=O)c2c(=O)c3ccc(N4CCCN(C)CC4)nc3n3c2sc2ccccc23)cn1 ?
0

And CC(C)n1c(=O)n(C)c2cnc3cc(F)c(-c4ccc(OCCCN5CCCCC5)nc4)cc3c21 + CN(C)c1ccc(Nc2c3ccc(NC(=O)CCN4CCCC4)cc3nc3cc(NC(=O)CCN4CCCC4)ccc23)cc1 ?
0

And CC1COCCN1c1cc(-c2ccnn2C)c2ccnc(-c3ccn[nH]3)c2n1 (stereo not given) + Cc1cnc(CNC(=O)c2c(=O)c3ccc(N4CCCN(C)CC4)nc3n3c2sc2ccccc23)cn1 ?
1

And COc1cccc2c1C(=O)c1c(O)c3c(c(O)c1C2=O)CC(O)(C(=O)CO)CC3OC1CC(N)C(O)C(C)O1 (stereo not given) + CN(C)c1ccc(Nc2c3ccc(NC(=O)CCN4CCCC4)cc3nc3cc(NC(=O)CCN4CCCC4)ccc23)cc1 ?
0

###

Some compounds, each annotated with its measured viability, T/C.
Tested on: 186277-243-T-J2-PDC complex spheroid viability
Assay: Anticancer human tumor 186277-243-T-J2-PDC cell line growth inhibition [GQUAD];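 note: spheroids exposed to drugs for 7 days; 100% = DMSO vehicle control viability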
Conditions: second compound 0.0316 µM; first compound 0.1 µM; stronger effect = lower value
Number only, in %; omit the unit.

Observe how each entry below is paired with its result.
CC1COCCN1c1cc(-c2ccnn2C)c2ccnc(-c3ccn[nH]3)c2n1 (stereo not given) + Cc1cnc(CNC(=O)c2c(=O)c3ccc(N4CCCN(C)CC4)nc3n3c2sc2ccccc23)cn1
16.1
COc1ncnc(C2CC2)c1-c1ncc2cnn(Cc3ccc(-c4nc(C(F)(F)F)cn4C(C)C)cc3)c2n1 + CN(C)c1ccc(Nc2c3ccc(NC(=O)CCN4CCCC4)cc3nc3cc(NC(=O)CCN4CCCC4)ccc23)cc1
102
Nc1ccn(C2OC(CO)C(O)C2(F)F)c(=O)n1 (stereo not given) + Cc1cnc(CNC(=O)c2c(=O)c3ccc(N4CCCN(C)CC4)nc3n3c2sc2ccccc23)cn1
13.3

Report viability, T/C for CC(C)(O)C1CCC(Nc2ccc3ncc(-c4cccc(C(F)(F)F)c4)n3n2)CC1 (stereo not given) + Cc1[nH]c2ccc(F)cc2c1-c1nc2c3cccnc3c3ncccc3c2[nH]1 please.
87.1

And CC1COCCN1c1cc(C2(S(C)(=N)=O)CC2)nc(-c2ccnc3[nH]ccc23)n1 (stereo not given) + CN(C)c1ccc(Nc2c3ccc(NC(=O)CCN4CCCC4)cc3nc3cc(NC(=O)CCN4CCCC4)ccc23)cc1 ?
100

###

System: 186277-243-T-J2-PDC complex spheroid viability
Assay: Anticancer human tumor 186277-243-T-J2-PDC cell line growth inhibition [GQUAD];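 note: spheroids exposed to drugs for 7 days; 100% = DMSO vehicle control viability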
Settings: second compound 3.16 µM; first compound 0.0316 µM; stronger effect = lower value
quantityMeasured: viability, T/C (%)
Number only, in %; omit the unit.

Observe how each entry below is paired with its result.
COc1ncnc(C2CC2)c1-c1ncc2cnn(Cc3ccc(-c4nc(C(F)(F)F)cn4C(C)C)cc3)c2n1 + CN(C)c1ccc(Nc2c3ccc(NC(=O)CCN4CCCC4)cc3nc3cc(NC(=O)CCN4CCCC4)ccc23)cc1
99.1
CC(C)(O)C1CCC(Nc2ccc3ncc(-c4cccc(C(F)(F)F)c4)n3n2)CC1 (stereo not given) + Cc1cnc(CNC(=O)c2c(=O)c3ccc(N4CCCN(C)CC4)nc3n3c2sc2ccccc23)cn1
34.5

Report viability, T/C for CC(=O)O[C@H]1C(=O)[C@@]2(C)[C@H]([C@H](OC(=O)c3ccccc3)[C@]3(O)C[C@H](OC(=O)[C@H](O)[C@@H](NC(=O)c4ccccc4)c4ccccc4)C(C)=C1C3(C)C)[C@]1(OC(C)=O)CO[C@@H]1C[C@@H]2O + Cc1[nH]c2ccc(F)cc2c1-c1nc2c3cccnc3c3ncccc3c2[nH]1 please.
11.6

And O=C(c1cc(Cc2n[nH]c(=O)c3ccccc23)ccc1F)N1CCN(C(=O)C2CC2)CC1 + Cc1cnc(CNC(=O)c2c(=O)c3ccc(N4CCCN(C)CC4)nc3n3c2sc2ccccc23)cn1 ?
44.2

And COc1cc(C2c3cc4c(cc3C(OC3OC5COC(C)OC5C(O)C3O)C3COC(=O)C23)OCO4)cc(OC)c1O (stereo not given) + Cc1cnc(CNC(=O)c2c(=O)c3ccc(N4CCCN(C)CC4)nc3n3c2sc2ccccc23)cn1 ?
50.9

And C=CC(=O)N1CCN(c2nc(=O)n(-c3c(C)ccnc3C(C)C)c3nc(-c4c(O)cccc4F)c(F)cc23)C(C)C1 (stereo not given) + Cc1[nH]c2ccc(F)cc2c1-c1nc2c3cccnc3c3ncccc3c2[nH]1 ?
84
